molecular target: cysteine-free form of IDE (CF-IDE) (Homo sapiens, UniProt P14735, C819S, form not given); assay: IDE activity assay with FRET1 using cysteine-free IDE; details: read-out: ki CF-IDE
pKi: −log10 of the molar value.
measure.name: pKi

O=c1c2cc(F)ccc2sn1-c1cc(S(=O)(=O)N2CCOCC2)ccc1N1CCOCC1
5.08
O=c1c2ccccc2sn1-c1cc(S(=O)(=O)N2CCOCC2)ccc1N1CCOCC1
5.09
O=c1c2cc(C(F)(F)F)ccc2sn1-c1cc(S(=O)(=O)N2CCOCC2)ccc1N1CCOCC1
5.10

----------
Target: extracellular IDE (Homo sapiens)
Sequence (P14735 1-1019): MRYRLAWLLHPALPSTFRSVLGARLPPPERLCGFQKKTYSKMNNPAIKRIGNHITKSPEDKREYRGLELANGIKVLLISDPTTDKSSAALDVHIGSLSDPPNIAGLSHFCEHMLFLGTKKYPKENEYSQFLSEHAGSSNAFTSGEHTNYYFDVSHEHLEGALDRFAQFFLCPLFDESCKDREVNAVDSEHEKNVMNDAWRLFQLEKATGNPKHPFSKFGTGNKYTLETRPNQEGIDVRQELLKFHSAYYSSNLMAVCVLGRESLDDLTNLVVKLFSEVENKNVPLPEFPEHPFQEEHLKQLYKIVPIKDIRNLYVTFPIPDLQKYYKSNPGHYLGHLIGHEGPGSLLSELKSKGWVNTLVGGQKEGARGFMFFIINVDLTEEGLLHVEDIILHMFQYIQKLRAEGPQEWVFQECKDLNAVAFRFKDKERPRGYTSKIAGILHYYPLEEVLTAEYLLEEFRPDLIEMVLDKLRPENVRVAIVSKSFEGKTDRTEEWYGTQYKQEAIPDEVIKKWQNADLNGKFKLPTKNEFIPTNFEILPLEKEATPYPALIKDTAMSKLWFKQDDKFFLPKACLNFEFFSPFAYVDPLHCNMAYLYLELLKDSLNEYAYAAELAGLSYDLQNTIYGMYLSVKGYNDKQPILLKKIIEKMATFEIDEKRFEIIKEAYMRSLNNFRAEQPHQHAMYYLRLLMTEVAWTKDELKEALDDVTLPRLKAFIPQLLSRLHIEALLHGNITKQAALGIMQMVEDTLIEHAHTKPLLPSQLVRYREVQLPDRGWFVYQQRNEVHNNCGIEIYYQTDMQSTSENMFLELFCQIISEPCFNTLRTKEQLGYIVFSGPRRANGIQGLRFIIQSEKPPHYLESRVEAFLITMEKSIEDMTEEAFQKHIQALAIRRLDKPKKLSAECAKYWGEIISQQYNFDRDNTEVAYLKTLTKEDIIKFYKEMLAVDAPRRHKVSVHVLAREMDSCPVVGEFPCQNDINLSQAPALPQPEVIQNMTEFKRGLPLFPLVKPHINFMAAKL
Assay: cell-based IDE activity assay
Details: read-out: IC50^app in cells, FAßB; Table 3; n=4
measure.name: pIC50
Quick note: pIC50 values are minus log10 of concentrations in mol/L.

Task item: If you can, please state the reported pIC50 value of O=c1c2cc(F)ccc2sn1-c1cc(S(=O)(=O)N2CCOCC2)ccc1N1CCOCC1 [Compound 8] .
Reply: 6.96

----------
target: extracellular IDE (Homo sapiens); assay: cell-based IDE activity assay; details: read-out: IC50^app cell-based; Table 2
measure.name: IC50 (nM)

P. O=c1c2cc(F)ccc2sn1-c1cc(S(=O)(=O)N2CCOCC2)ccc1N1CCOCC1
Q. O=c1c2ccccc2sn1-c1cc(S(=O)(=O)N2CCOCC2)ccc1N1CCOCC1
Task item: Between P and Q , which one shows the smaller IC50 number? API: response body contains the label of the selected item.
Reply: P
